Target: T1, human MAdCAM expressed on cells (human, UniProt Q13477 19-382)
T1 construct: whole, on cells
T1 sequence (looked up): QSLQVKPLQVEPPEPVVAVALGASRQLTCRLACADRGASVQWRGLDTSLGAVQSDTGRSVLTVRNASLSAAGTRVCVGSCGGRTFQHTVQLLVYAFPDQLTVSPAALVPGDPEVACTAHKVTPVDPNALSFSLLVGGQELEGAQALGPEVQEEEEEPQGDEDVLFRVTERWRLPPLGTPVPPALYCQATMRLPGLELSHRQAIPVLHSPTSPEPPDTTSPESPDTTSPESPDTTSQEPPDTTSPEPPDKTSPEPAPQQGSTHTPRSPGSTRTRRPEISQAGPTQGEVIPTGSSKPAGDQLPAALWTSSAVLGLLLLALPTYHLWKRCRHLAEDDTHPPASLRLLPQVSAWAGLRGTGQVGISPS
Assay: cell binding

binder: MAdCAM antibody Table 1 clone 35 (scFv) scFv: EVQLLESGGGLVQPGGSLRLSCAASGFSFSSYTMNWVRQAPGKGLEWVSFITSSSRTIYYADSVKGRFTISRDNSKNTLYLQMNSLRAEDTAVYYCARDRRGDYGDSWYFDLWGRGTLVTVSSGGGGSGGGGSGGGGSGGGGSEIVMTQSPATLSVSPGERATLSCRASQSVRNYLAWYQQKPGQAPRLLIYGASTRATGIPARFSGSGSGTEFTLTISSLQSEDFAVYYCQQYGSSPLTFGGGTKVEIK
binding result: binds

binder: MAdCAM antibody Table 1 clone 16 (scFv) scFv: EVQLLESGGGLVQPGGSLRLSCAASGFTFEDYAMHWVRQAPGKGLEWVSYLNSDGGSTSYADSVKGRFTISRDNSKNTLYLQMNSLRAEDTAVYYCAKDYCTNGVCAFDYWGQGTLVTVSSGGGGSGGGGSGGGGSGGGGSDIQMTQSPSSLSASVGDRVTITCRASQSISTYLNWYQQKPGKAPKLLIYDASNLETGVPSRFSGSGSGTDFTLTISSLQPEDFATYYCQQSYTIPITFGQGTRLEIK
binding result: binds

binder: MAdCAM antibody Table 1 clone 13 (scFv) scFv: EVQLLESGGGLVQPGGSLRLSCAASGFTFDDYAMHWVRQAPGKGLEWVSYIDASGTTIYYADSVKGRFTISRDNSKNTLYLQMNSLRAEDTAVYYCAKDQAAAGYWYFDLWGRGTLVTVSSGGGGSGGGGSGGGGSGGGGSDIQMTQSPSSLSASVGDRVTITCQASQDISNYLNWYQQKPGKAPKLLIYKASTLESGVPSRFSGSGSGTDFTLTISSLQPEDFATYYCQQSYSTPITFGQGTRLEIK
binding result: binds

Values compiled from patent US20230235004A1.
